molecular target: recombinant human mGluR2 (Homo sapiens (Human)); assay: FLIPR Ca2+ mobilization antagonist assay in CHO dhfr- cells expressing human mGluR2 and Gα16; details: antagonist response after addition of 2,500 nM glutamate, Fluo-4 AM, FLIPR384
We begin with a simple list: items and their reported pIC50.
Keep it numeric: pIC50 is minus log10 of the concentration in mol/L.

# count of solved cases: 6
[[record]]
compound = "CC1c2nc(C(N)=O)cc(-c3ccc(F)cc3F)c2CCN1Cc1ccnn1C(C)C (single isomer, unassigned) [Example 1-15B]"
experimental_result = 8.28

[[record]]
compound = "CC1c2nc(C(N)=O)cc(-c3ccc(F)cc3F)c2CCN1CC1CCOC(C)(C)C1 (single isomer, unassigned) [Example 1-18]"
experimental_result = 7.91

[[record]]
compound = "CC1(C)CC(O)(CN2CCc3c(-c4ccc(F)cc4F)cc(C(N)=O)nc3C2(C)C)CO1 (single isomer, unassigned) [Example 15-1A]"
experimental_result = 7.60

[[record]]
compound = "NC(=O)c1cc(-c2c(F)cc(Cl)cc2F)c2c(n1)CN(Cc1ccnn1C(F)F)CC2 [Example 2-20]"
experimental_result = 7.96

[[record]]
compound = "NC(=O)c1cc(N2CCCC3(CC3)C2)c2c(n1)CN(Cc1ccnc(C(F)(F)F)c1)CC2 [Example 5-4]"
experimental_result = 7.54

[[record]]
compound = "CC(c1ccnc(C(F)(F)F)c1)N1CCc2c(-c3cnn(C(F)F)c3)cc(C(N)=O)nc2C1 (single isomer, unassigned) [Example 7-3A]"
experimental_result = 7.53


If you can, please state the reported pIC50 value of CN1CCN(c2cc(C(N)=O)nc3c2CCN(Cc2ccnc(C(F)(F)F)c2)C3)CC1C(F)(F)F (single isomer, unassigned) [Example 5-9] . 7.03

----------
We begin with a simple list: items and their reported IC50.
target: recombinant human mGluR2 (Homo sapiens (Human), UniProt Q14416); test: FLIPR Ca2+ mobilization antagonist assay in CHO dhfr- cells expressing human mGluR2 and Gα16; conditions: antagonist response after addition of 2,500 nM glutamate, Fluo-4 AM, FLIPR384
Sequence (Q14416 19-872): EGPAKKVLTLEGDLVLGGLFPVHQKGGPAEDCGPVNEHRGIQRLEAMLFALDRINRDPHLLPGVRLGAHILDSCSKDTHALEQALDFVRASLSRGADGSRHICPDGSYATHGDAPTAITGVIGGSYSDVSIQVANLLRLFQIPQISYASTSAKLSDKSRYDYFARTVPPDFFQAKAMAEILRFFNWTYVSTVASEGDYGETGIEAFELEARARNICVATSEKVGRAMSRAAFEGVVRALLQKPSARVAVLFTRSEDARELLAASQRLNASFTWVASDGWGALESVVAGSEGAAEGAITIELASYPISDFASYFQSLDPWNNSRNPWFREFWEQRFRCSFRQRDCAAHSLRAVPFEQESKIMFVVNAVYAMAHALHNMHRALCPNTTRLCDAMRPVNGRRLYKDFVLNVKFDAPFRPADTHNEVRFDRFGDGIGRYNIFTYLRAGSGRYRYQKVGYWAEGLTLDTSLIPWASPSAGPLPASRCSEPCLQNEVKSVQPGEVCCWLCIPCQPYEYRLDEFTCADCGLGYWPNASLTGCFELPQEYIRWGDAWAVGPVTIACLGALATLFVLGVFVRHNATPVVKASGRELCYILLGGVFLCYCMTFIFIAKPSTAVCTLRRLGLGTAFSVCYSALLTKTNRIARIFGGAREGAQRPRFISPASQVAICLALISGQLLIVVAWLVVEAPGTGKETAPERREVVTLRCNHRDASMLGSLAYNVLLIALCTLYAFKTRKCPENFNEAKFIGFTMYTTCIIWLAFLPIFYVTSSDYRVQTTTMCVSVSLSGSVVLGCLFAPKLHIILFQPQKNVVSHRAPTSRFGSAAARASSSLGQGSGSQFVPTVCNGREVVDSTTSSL
Your reply should be a number followed by the unit it is expressed in.

# count of solved cases: 5
[[record]]
compound = "NC(=O)c1cc(-c2c(F)cccc2F)c2c(n1)CN(Cc1ccnc(C(F)(F)F)n1)CC2"
experimental_result = "0.0258 µM"

[[record]]
compound = "CC1(C)CC(O)(CN2CCc3c(-c4ccc(F)cc4F)cc(C(N)=O)nc3C2)CCO1 (single isomer, unassigned) [Example 14-2A]"
experimental_result = "0.0317 µM"

[[record]]
compound = "CC1(C)CC(O)(CN2CCc3c(-c4ccc(F)cc4F)cc(C(N)=O)nc3C2(C)C)CO1 (single isomer, unassigned) [Example 15-1B]"
experimental_result = "0.0236 µM"

[[record]]
compound = "CC1(C)CC(CN2CCc3c(-c4ccc(F)cc4F)cc(C(N)=O)nc3C2)CCO1 (single isomer, unassigned) [Example 1-11A]"
experimental_result = "0.0301 µM"

[[record]]
compound = "NC(=O)c1cc(-c2ccc(F)cc2F)c2c(n1)CN(Cc1cc(C(F)(F)F)ncn1)CC2"
experimental_result = "0.0057 µM"


If you can, please state the reported IC50 value of NC(=O)c1cc(-c2ccc(Cl)cn2)c2c(n1)CN(Cc1ccnc(C(F)(F)F)c1)CC2 . 0.0117 µM

NC(=O)c1cc(-c2c(F)cc(Cl)cc2F)c2c(n1)CN(Cc1ccnc(C(F)(F)F)n1)CC2 ? 0.0065 µM

Cc1nc(CN2CCc3c(-c4ccc(Cl)cc4F)cc(C(N)=O)nc3C2)no1 ? 0.0097 µM

CC(C)(C)[C@@H]1C[C@H](CN2CCc3c(-c4ccc(F)cc4)cc(C(N)=O)nc3C2)CCO1 ? 0.132 µM

NC(=O)c1cc(-c2ccc(F)cc2)c2c(n1)CN(C(c1cccnc1)C(F)(F)F)CC2 (racemic) [Example 3-1A] ? 0.0212 µM

NC(=O)c1cc(-c2ccc(F)cc2F)c2c(n1)CN(CC1CCOC(C3CCC3)C1)CC2 (single isomer, unassigned) ? 0.0403 µM

COc1cc(CN2CCc3c(-c4ccc(F)cc4F)cc(C(N)=O)nc3C2)ccn1 ? 0.0078 µM

NC(=O)c1cc(N2CCC3(CC2)CC3)c2c(n1)CN(Cc1cc(C(F)(F)F)ncn1)CC2 ? 0.0204 µM

Cn1nncc1CN1CCc2c(-c3c(F)cc(F)cc3F)cc(C(N)=O)nc2C1 ? 0.0337 µM

CC1(C)CCC(c2cc(C(N)=O)nc3c2CCN(Cc2ccnc(C(F)(F)F)c2)C3)CC1 ? 0.117 µM

NC(=O)c1cc(-c2ccc(F)cc2)c2c(n1)CN(C[C@@H]1CCO[C@H](C3CC3)C1)CC2 ? 0.129 µM

NC(=O)c1cc(-c2ccc(F)cc2F)c2c(n1)CN(CC(O)c1ccccc1)CC2 (single isomer, unassigned) [Example 8-3A] ? 0.0185 µM

Cn1cc(CN2CCc3c(-c4ccc(Cl)cc4F)cc(C(N)=O)nc3C2)cn1 ? 0.0146 µM

COc1ccc(-c2cc(C(N)=O)nc3c2CCN(Cc2ccnc(OC)c2)C3)c(F)c1 ? 0.0066 µM

CC(C)(C)[C@H]1C[C@@H](CN2CCc3c(-c4ccc(F)cc4)cc(C(N)=O)nc3C2)CCO1 ? 0.179 µM

Cn1ncnc1CN1CCc2c(-c3ccc(Cl)cc3F)cc(C(N)=O)nc2C1 ? 0.0239 µM

Source listed as patent US10072003B2.
